Values were extracted from PubChem BioAssay (NCI).

Assay: NCI Yeast Anticancer Drug Screen. Data for the bub3 strain (AID 167)
Conditions: S. cerevisiae bub3 mutant strain, at 11.0 µM
This is part of a sample that, as a whole, favours compounds with a hit. Of some 79,000 tested, about 15% had one in any assay. Activity calls are given as the source filed them. Rule as the data show it: active = growth inhibition above about 70%; inactive = the rest.
Choose the fitting class; nothing outside label 1 (active), label 0 (inactive) is accepted.

Solved entries:
[[record]]
compound = "CCCCCCCCCCCCCCN"
group = "label 0"

[[record]]
compound = "N#C/C(=C\\NC(=S)Nc1ccc(S(N)(=O)=O)cc1)C(=O)c1ccc2ccccc2c1"
group = "label 0"

[[record]]
compound = "O=C(NCCCCN(CCCNC(=O)C(F)(F)F)Cc1ccccc1)C(F)(F)F"
group = "label 0"

[[record]]
compound = "CC(C)=CCC/C(C)=C/CN1C(=O)C=CC1=O"
group = "label 1"

[[record]]
compound = "CC1=COC2=C(C)C(=O)C(=O)c3c(C)ccc1c32"
group = "label 1"


Prompt: Given CCCCS/C(=C(/C#N)C(N)=O)c1cc2c([nH]1)CCCC2 , state the outcome it received in this test.
Completion: label 0

Prompt: GET /call?item= OC1(c2ccccc2)C2CC=CC2C1(c1ccccc1)c1ccccc1 (stereo not given) returns the recorded outcome of this test.
Completion: label 0

Prompt: // outcome(item) with item = CN(N=O)C(=O)Nc1ccc(C(=O)O)cc1
Completion: label 0
